molecular target: recombinant human integrin αvβ1 (Homo sapiens (Human), UniProt P05556+P06756); assay: Solid phase integrin αvβ1 binding assay (fibronectin); settings: recombinant human integrin αvβ1 coated plate, recombinant fibronectin 2 ug/ml, 2 hours at 25° C., read-out: αvβ1 Inhibition IC50 (nM)-range
Sequence (P06756 31-889): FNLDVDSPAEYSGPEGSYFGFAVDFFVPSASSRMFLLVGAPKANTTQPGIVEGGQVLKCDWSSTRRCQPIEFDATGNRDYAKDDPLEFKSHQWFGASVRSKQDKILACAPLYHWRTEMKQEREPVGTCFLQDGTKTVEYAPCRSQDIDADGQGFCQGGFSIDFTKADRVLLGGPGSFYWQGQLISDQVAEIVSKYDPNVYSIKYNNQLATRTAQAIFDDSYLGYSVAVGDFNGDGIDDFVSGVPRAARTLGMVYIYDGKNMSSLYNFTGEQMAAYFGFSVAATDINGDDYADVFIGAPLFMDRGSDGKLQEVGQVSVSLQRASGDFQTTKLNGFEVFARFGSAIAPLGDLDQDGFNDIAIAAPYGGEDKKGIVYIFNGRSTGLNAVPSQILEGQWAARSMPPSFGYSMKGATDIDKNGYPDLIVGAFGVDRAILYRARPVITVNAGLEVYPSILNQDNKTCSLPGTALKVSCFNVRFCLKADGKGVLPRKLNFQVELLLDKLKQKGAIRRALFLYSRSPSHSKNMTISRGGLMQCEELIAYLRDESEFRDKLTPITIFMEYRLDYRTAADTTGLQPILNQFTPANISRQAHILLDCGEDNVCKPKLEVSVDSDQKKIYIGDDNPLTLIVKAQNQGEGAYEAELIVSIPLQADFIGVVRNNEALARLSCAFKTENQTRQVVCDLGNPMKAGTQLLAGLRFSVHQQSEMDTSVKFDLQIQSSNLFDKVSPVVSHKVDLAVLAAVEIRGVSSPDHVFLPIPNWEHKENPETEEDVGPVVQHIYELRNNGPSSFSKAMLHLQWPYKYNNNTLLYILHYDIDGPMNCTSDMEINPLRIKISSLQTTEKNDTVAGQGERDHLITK
Sequence (P06756 891-992 partner): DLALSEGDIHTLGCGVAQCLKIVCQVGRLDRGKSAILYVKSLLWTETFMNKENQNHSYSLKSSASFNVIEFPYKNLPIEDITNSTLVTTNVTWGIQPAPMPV
Sequence (P05556 21-728): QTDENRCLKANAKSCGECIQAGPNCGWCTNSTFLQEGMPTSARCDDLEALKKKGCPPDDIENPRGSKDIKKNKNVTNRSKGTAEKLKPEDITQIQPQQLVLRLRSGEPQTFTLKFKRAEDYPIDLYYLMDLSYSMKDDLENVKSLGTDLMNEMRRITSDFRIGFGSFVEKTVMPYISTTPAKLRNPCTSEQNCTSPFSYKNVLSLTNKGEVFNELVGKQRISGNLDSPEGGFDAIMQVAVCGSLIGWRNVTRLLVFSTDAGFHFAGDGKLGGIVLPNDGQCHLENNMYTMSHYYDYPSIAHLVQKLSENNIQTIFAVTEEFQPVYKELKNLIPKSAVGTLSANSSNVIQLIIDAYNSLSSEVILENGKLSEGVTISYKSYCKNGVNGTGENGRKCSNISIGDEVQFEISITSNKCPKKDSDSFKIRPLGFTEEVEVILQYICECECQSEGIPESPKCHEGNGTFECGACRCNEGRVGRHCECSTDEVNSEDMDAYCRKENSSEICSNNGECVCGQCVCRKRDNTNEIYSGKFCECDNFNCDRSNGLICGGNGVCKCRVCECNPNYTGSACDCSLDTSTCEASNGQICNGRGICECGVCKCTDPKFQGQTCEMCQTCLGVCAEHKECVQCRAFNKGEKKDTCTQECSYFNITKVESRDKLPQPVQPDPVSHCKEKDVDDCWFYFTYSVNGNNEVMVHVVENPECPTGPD
measurement-label: IC50

>>> df
                                   compound    test_value
0  Cc1cc(C)n(-c2cccc(C(=O)N[C@@H](CCCCCCCc3ccc4c(n3)NCCC4)C(=O)O)c2)n1       < 50 nM
1  COc1ccc(C(=O)NC(CCCCCCCc2ccc3c(n2)NCCC3)C(=O)O)cc1 (stereo not shown)       < 50 nM
2  O=C(NC(CCCCCCCc1ccc2c(n1)NCCC2)C(=O)O)c1ccccc1F (stereo not shown)       < 50 nM
3  O=C(N[C@@H](CCCCCCCc1ccc2c(n1)NCCC2)C(=O)O)c1cccc(-c2cncs2)c1  50 to 250 nM
4  O=C(N[C@@H](CCCCCCCc1ccc2c(n1)NCCC2)C(=O)O)c1cc(OC(F)(F)F)ccc1Cl       < 50 nM

Measured IC50 of "CC(C)Oc1ccc(C(=O)N[C@@H](CCCCCCCc2ccc3c(n2)NCCC3)C(=O)O)c(Cl)c1" : < 50 nM

Measured IC50 of O=C(NC(CCCCCCCc1ccc2c(n1)NCCC2)C(=O)O)c1ccc(Cl)cc1 (stereo not shown) : < 50 nM

Measured IC50 of O=C(O)C(CCCCCCCc1ccc2c(n1)NCCC2)NC(=O)N1CCn2c(nnc2C(F)(F)F)C1 (stereo not shown) : < 50 nM

Measured IC50 of O=C(NC(CCCCCCCc1ccc2c(n1)NCCC2)C(=O)O)c1ccccc1Cl (stereo not shown) : < 50 nM

Measured IC50 of "Cn1cc(-c2cccc(C(=O)N[C@H](CCCCCCCc3ccc4c(n3)NCCC4)C(=O)O)c2)cn1" : > 1000 nM

Measured IC50 of O=C(NC(CCCCCCCc1ccc2c(n1)NCCC2)C(=O)O)c1ccc(F)cc1 (stereo not shown) : < 50 nM

Measured IC50 of N#Cc1ccc(C(=O)NC(CCCCCCCc2ccc3c(n2)NCCC3)C(=O)O)cc1 (stereo not shown) : < 50 nM

----------
# Lookup of reported IC50 keyed by entry
biological target: αvβ1 integrin (αvβ1 expressing CHO cells) (Homo sapiens (Human), UniProt P05556+P06756); assay: Cell adhesion assay: inhibition of αvβ1 expressing CHO cells attaching to TGFβ1LAP; assay type: cell-based; details: 1 h at 37° C., crystal violet absorbance 595 nm, read-out: αvβ1 Inhibition IC50 (nM)-range
Sequence (P06756 31-889): as the sequence (P06756 31-889) above
Sequence (P06756 891-1048 partner): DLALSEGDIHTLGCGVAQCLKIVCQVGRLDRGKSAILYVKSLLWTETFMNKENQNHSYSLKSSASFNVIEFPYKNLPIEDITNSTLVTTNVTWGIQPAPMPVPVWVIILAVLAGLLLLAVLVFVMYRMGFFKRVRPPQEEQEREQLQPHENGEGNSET
Sequence (P05556 21-798): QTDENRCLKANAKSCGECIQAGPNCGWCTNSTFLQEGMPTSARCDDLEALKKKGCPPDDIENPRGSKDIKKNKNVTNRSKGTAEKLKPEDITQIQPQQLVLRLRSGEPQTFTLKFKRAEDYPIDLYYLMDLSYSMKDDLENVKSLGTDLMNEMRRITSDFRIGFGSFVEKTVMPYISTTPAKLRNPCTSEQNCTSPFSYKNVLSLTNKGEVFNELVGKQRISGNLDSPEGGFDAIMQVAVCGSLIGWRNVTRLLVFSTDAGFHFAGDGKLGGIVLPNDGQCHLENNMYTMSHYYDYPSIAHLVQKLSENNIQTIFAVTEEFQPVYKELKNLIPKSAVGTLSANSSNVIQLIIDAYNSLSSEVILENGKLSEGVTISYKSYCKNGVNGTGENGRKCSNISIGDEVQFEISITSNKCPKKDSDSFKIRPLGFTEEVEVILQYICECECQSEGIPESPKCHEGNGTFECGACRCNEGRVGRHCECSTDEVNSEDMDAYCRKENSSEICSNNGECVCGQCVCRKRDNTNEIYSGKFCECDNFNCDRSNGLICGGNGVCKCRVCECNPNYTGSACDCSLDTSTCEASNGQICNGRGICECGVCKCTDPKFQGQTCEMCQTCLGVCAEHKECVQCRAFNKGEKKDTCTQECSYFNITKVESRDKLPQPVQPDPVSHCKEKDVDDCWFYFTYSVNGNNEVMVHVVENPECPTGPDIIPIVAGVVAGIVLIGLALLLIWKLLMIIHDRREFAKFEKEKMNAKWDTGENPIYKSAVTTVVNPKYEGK

Example entries begin here.
>>> print(df.to_string())
                                   molecule      test_value
0  O=C(N[C@@H](CCCCCCCCNC1=NCCCS1)C(=O)O)c1c(Cl)cccc1Cl [Example 54]  250 to 1000 nM
1  O=C(N[C@@H](Cc1ccc(OCCCc2ccc3c(n2)NCCC3)cc1)C(=O)O)c1cc(Cl)cc(Cl)c1 [Example 35]         < 50 nM
2  O=C(N[C@@H](Cc1ccc(OCCCc2ccc3c(n2)NCCC3)cc1)C(=O)O)c1c(Cl)cccc1Cl [Example 16]         < 50 nM
3  O=C(N[C@@H](Cc1ccc(OCCCCNC2=NCCO2)cc1)C(=O)O)c1c(Cl)cccc1Cl [Example 61]    50 to 250 nM
4  O=C(N[C@@H](CCCCCCCc1ccc2c(n1)NCCC2)C(=O)O)c1ccc(-c2ccncc2)cc1 [Compound 112]    50 to 250 nM

Measured IC50 of O=C(NC(Cc1ccc(OCCCc2ccc3c(n2)NCCC3)cc1)C(=O)O)c1c(Cl)cc(-c2cnc[nH]2)cc1Cl (stereo not drawn) [Compound 99] : < 50 nM

Measured IC50 of O=C(N[C@@H](Cc1ccc(O[C@H]2CC[C@H](Nc3ccccn3)CC2)cc1)C(=O)O)c1c(Cl)cccc1Cl [Example 39] : > 1000 nM

Measured IC50 of O=C(NC(CN1CC(OCCCc2ccc3c(n2)NCCC3)C1)C(=O)O)c1c(Cl)cccc1Cl (racemic) [Example 28] : 250 to 1000 nM

Measured IC50 of O=C(N[C@@H](CCCCCCCc1ccc2c(n1)NCCC2)C(=O)O)c1ccc2c(cnn2C(F)F)c1 [Compound 107] : 250 to 1000 nM

Measured IC50 of O=C(N[C@@H](Cc1ccc(N2CC(Cc3ccc4c(n3)NCCC4)C2)cc1)C(=O)O)c1c(Cl)cccc1Cl [Example 21] : > 1000 nM

Measured IC50 of O=C(N[C@@H](CCCCCCCc1ccc2c(n1)NCCC2)C(=O)O)c1c(Cl)cccc1Cl [Example 19] : < 50 nM

Measured IC50 of N#Cc1ccc(Cl)c(C(=O)N[C@@H](CCCCCCCc2ccc3c(n2)NCCC3)C(=O)O)c1 [Compound 100] : < 50 nM
